# IC50 per entry
- System Tested: PI3K alpha (Homo sapiens (Human), UniProt P42336)
- Sequence (P42336 other isoform, or with tags, fused parts or gaps): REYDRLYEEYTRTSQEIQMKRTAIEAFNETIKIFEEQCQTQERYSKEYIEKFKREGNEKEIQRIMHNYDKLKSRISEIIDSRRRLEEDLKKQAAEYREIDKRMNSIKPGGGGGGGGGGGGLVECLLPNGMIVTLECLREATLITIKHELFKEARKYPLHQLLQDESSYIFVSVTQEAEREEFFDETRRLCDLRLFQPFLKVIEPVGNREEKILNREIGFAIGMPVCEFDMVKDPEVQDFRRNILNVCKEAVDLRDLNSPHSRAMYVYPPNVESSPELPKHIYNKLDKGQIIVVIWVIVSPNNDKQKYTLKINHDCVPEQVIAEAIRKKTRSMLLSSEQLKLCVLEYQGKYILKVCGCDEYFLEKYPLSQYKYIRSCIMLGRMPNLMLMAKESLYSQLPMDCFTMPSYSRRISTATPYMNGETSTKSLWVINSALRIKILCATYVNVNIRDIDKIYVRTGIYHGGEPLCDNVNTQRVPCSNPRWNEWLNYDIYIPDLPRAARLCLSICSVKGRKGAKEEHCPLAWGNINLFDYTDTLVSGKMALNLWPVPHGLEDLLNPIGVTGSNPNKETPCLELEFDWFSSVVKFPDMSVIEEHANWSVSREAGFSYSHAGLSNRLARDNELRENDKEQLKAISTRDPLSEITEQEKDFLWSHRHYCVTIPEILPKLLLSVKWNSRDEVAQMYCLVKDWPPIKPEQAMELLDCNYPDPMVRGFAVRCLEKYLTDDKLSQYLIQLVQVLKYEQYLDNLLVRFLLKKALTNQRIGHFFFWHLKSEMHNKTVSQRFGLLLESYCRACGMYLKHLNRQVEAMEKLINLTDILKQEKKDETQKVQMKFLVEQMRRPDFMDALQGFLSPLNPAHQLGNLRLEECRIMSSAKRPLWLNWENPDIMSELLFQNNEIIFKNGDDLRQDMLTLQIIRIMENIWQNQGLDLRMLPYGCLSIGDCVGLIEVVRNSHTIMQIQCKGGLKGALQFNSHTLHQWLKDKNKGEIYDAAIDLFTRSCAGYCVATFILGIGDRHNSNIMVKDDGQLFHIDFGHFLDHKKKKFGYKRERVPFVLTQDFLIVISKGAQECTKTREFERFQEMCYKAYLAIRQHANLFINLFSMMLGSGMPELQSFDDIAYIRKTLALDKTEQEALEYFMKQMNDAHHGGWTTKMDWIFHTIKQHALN
- Assay Explanation: Enzymatic PI3K alpha isoform inhibition (lipid kinase activity, Kinase-Glo luminescence)
- Measurement Setup: Enzymatic assay

{"Chemical Structure": "COc1ncc(N2CCOc3ccc(O[C@@H]4CON(C(=O)C5CCOCC5)C4)cc32)cc1C#N", "IC50": "> 9.1 µM"}
{"Chemical Structure": "CCC(=O)N1CC[C@H](Oc2ccc3c(c2)N(c2ccc(OC)c(S(=O)(=O)N4CCN(C)CC4)c2)CCO3)C1", "IC50": "> 9.1 µM"}
{"Chemical Structure": "CCC(=O)N1CC[C@H](Oc2ccc3c(c2)N(c2ccc(S(=O)(=O)CC)nc2)CCO3)C1", "IC50": "> 9.1 µM"}
